# TARGET_OF_ASSAY: apical domain of CD71 (Screen 3: 'cynomolgus apical domain of human CD71') (cynomolgus (as paragraph 454 words it; ambiguous))
# PROTOCOL_NOTES: primary ELISA, RLU ratio to HSA
The threshold is inclusive: Apical domain:HSA of exactly 600 counts as true; values below receive false.

[
  {
    "BINDER": "CD71-binding FN3 domain SEQ ID NO: 250 (designed binder) MSLPAPKNLVVSRVTEDSARLSWTAPDAAFDSFEIGYFENLYLGEAIVLTVPGSERSYDLTGLKPGTEYWVQIGGVNGGNWSAPLSAIFTT",
    "LABEL_CLASS": "false"
  },
  {
    "BINDER": "CD71-binding FN3 domain SEQ ID NO: 332 (designed binder) MSLPAPKNLVVSRVTEDSARLSWTAPDAAFDSFEIGYWEGPGGGEAIILVVPGSERSYDLTGLKPGTEYYVQIGGVKGGDWSTPLWATFTT",
    "LABEL_CLASS": "false"
  },
  {
    "BINDER": "CD71-binding FN3 domain SEQ ID NO: 297 (designed binder) MSLPAPKNLVVSRVTEDSARLSWTAPDAAFDSFEISYFENTWYGEAIVLTVPGSERSYDLTGLKPGTEYSVRIFGVKGGNFSFPLSAIFTT",
    "LABEL_CLASS": "true"
  },
  {
    "BINDER": "CD71-binding FN3 domain SEQ ID NO: 284 (designed binder) MSLPAPKNLVVSRVTEDSARLSWTAPDAAFDSFEIGYWENAYKGEAIVLTVPGSERSYDLTGLKPGTEYMVFIGGVKGGVWSVPLSAIFTT",
    "LABEL_CLASS": "false"
  },
  {
    "BINDER": "CD71-binding FN3 domain SEQ ID NO: 242 (designed binder) MSLPAPKNLVVSRVTEDSARLSWTAPDAAFDSFEIGYFENLYLGEAIVLTVPGSERSYDLTGLKPGTKYWVQIGGVKGGNWSAPLSAIFTT",
    "LABEL_CLASS": "false"
  },
  {
    "BINDER": "CD71-binding FN3 domain SEQ ID NO: 294 (designed binder) MSLPAPKNLVVSRVTEDSARLSWTAPDAAFDSFFIGYLEPQPLGEAIHLFVPGSERSYDLTGLKPGTEYNVTIQGVKGGFPSEPLIASFTT",
    "LABEL_CLASS": "false"
  },
  {
    "BINDER": "CD71-binding FN3 domain SEQ ID NO: 235 (designed binder) MSLPAPKNLVVSRVTEDSARLSWTAPDAAFDSFEIVYAEPVRFGEAIVLTVPGSERSYDLTGLKPGTEYWVQIGGVKGGNWSAPLSAIFTT",
    "LABEL_CLASS": "false"
  },
  {
    "BINDER": "CD71-binding FN3 domain SEQ ID NO: 320 (designed binder) MSLPVPKNLVVSRVTEDSARLSWTAPDAAFDSFEIGYWENAYKGEAIVLTVPGSERSYDLTGLKPGTEYWVQIGGVKGGNWSAPLSAIFTT",
    "LABEL_CLASS": "false"
  },
  {
    "BINDER": "CD71-binding FN3 domain SEQ ID NO: 331 (designed binder) MSLPAPKNLVVSRVTEDSARLSWTAPDAAFDSFFIGYLEPQPPGEAIHLYVPGSERSYDLTGLKPGTEYNVTIQGVKVGFPSEPLIANFTT",
    "LABEL_CLASS": "true"
  }
]
